Tested on: MDR1
Assay: Efflux ratio of permeability from basolateral to apical over apical basolateral side in MDCK cells expressing MDR1
Format: ADME, cell-based, Canis lupus familiaris
Details: dog
property.name: efflux ratio

{"smiles.input": "Cc1cc(Cl)ccc1-c1cccc(COc2ccc([C@H](CC(=O)O)c3nccn3C)cc2)c1", "property.name": "efflux ratio", "test.result": 22}

* * *

Target: Free fatty acid receptor 1 (Homo sapiens)
Sequence (O14842 whole entry): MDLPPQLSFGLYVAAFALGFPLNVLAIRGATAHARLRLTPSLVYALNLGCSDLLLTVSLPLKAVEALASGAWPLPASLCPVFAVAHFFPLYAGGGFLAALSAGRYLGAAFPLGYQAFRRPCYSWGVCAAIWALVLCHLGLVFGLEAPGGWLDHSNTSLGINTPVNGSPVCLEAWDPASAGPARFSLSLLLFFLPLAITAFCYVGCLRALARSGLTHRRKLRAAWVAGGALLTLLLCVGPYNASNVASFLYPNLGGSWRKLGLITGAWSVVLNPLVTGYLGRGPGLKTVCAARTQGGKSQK
Assay: Partial agonist activity at human GPR40 expressed in CHO cells measured over 20 secs interval by luminometric analysis in presence of 100% human serum
Format: cell-based
pEC50: −log10 of the molar value.
Measured pEC50 accompanies every entry in the list below.

{"smiles.input": "Cc1ccccc1-c1cccc(COc2ccc([C@H](CC(=O)O)c3nccn3C)cc2)c1", "assayed.target": "Free fatty acid receptor 1 (Homo sapiens)", "pEC50": 4.05}
{"smiles.input": "Cn1ccnc1[C@@H](CC(=O)O)c1ccc(OCc2cccc(-c3ccccc3OC(F)(F)F)c2)cc1", "assayed.target": "Free fatty acid receptor 1 (Homo sapiens)", "pEC50": 4.21}
{"smiles.input": "Cn1ccnc1[C@@H](CC(=O)O)c1ccc(OCc2cccc(-c3ccccc3Cl)c2)cc1", "assayed.target": "Free fatty acid receptor 1 (Homo sapiens)", "pEC50": 4.25}

* * *

Assay: Oral bioavailability in dog at 2 mg/kg
Format: ADME, organism-based, Canis lupus familiaris
Details: in vivo

{"smiles.input": "Cc1cc(Cl)ccc1-c1cccc(COc2ccc([C@H](CC(=O)O)c3nccn3C)cc2)c1", "bioavailability (%)": 66}

* * *

Target: Free fatty acid receptor 1 (Macaca fascicularis)
Sequence (Q76JV1 whole entry): as the sequence (O14842 whole entry) above, with G10A, T31R, L36R, A83G, F88A, G143V, R211H, Y250N, G296S, K297T counted along it
Assay: Agonist activity at cynomolgus monkey GPR40 in presence of 0.01% human serum albumin relative to AMG 837

{"smiles.input": "Cc1cc(Cl)ccc1-c1cccc(COc2ccc([C@H](CC(=O)O)c3nccn3C)cc2)c1", "EC50 / nM": 29}

* * *

Test: Cmax in rat at 2 mg/kg, po
Assay type: ADME, organism-based
Design: dose 2 mg/kg, route oral
Details: in vivo
property.name: Cmax (nM)

{"smiles.input": "Cc1cc(Cl)ccc1-c1cccc(COc2ccc([C@H](CC(=O)O)c3nccn3C)cc2)c1", "unit": "nM", "test.result": 770}

* * *

Test: Clearance in cynomolgus monkey at 0.5 mg/kg, iv
Type: ADME, organism-based, Macaca fascicularis
Conditions: in vivo

{"smiles.input": "Cc1cc(Cl)ccc1-c1cccc(COc2ccc([C@H](CC(=O)O)c3nccn3C)cc2)c1", "clearance, mL/min/kg": 4.5}

* * *

Assay: Half life in rat at 0.5 mg/kg, iv
Assay type: ADME, organism-based
Conditions: in vivo

{"smiles.input": "Cc1cc(Cl)ccc1-c1cccc(COc2ccc([C@H](CC(=O)O)c3nccn3C)cc2)c1", "half-life": "1.6 h"}

* * *

Tested on: MDR1
Experiment: Permeability across apical to basolateral side in MDCK cells expressing MDR1
Format: ADME, cell-based, Canis lupus familiaris
Details: dog, read-out: permeability
property.name: Papp A→B

{"smiles.input": "Cc1cc(Cl)ccc1-c1cccc(COc2ccc([C@H](CC(=O)O)c3nccn3C)cc2)c1", "test.result": "1.4 ×10⁻⁶ cm/s"}

* * *

Assay: Half life in dog at 0.5 mg/kg, iv
Format: ADME, organism-based, Canis lupus familiaris
Details: in vivo

{"smiles.input": "Cc1cc(Cl)ccc1-c1cccc(COc2ccc([C@H](CC(=O)O)c3nccn3C)cc2)c1", "half-life, h": 5.1}
